molecular target: LmxCLK1 (Leishmania mexicana, UniProt E9AMP2); experiment: biochemical; assay type: binding; conditions: DSF, 10 µM compound, 2 µM LmxCLK1, Run 1; read-out: ΔTm Run 1
Sequence (E9AMP2 1-422): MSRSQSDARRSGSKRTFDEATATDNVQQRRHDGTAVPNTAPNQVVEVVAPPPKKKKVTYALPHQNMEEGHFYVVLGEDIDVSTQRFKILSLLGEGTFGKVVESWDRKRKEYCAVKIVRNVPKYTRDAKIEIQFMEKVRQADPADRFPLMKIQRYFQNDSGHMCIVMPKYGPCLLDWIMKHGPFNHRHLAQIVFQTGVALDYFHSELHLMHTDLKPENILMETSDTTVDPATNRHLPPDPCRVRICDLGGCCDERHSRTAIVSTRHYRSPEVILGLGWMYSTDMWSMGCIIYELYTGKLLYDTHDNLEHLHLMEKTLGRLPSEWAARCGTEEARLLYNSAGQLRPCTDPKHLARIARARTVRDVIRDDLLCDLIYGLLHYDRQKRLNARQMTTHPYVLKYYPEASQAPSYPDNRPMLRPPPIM
experimental-endpoint: ΔTm at 10 µM (°C)
Express it in °C; write the number only.

Task: Can you look up the measured ΔTm at 10 µM of OCCn1cc(-c2ccc3c(c2)CC/C3=N\O)c(-c2ccncc2)n1 [GDC-0879] for me?
Result: 0

Task: Also CO[C@H]1C[C@@H]2CC[C@@H](C)[C@@](O)(O2)C(=O)C(=O)N2CCCC[C@H]2C(=O)O[C@H]([C@H](C)C[C@@H]2CC[C@@H](O)[C@H](OC)C2)CC(=O)[C@H](C)/C=C(\C)[C@@H](O)[C@@H](OC)C(=O)[C@H](C)C[C@H](C)/C=C/C=C/C=C/1C [Rapamycin (Sirolimus)] ?
Result: 0.3

Task: One more molecule: CNc1nc(-c2ccc3c(N)n[nH]c3c2)cc(N2C[C@@H](C(=O)NC3CCCCC3)CC[C@H]2C)n1 [GSK2334470]
Result: 0.3

Task: Same again, this time with N#CC1(c2ccc(NC(=O)c3cccnc3NCc3ccncc3)cc2)CCCC1 [Apatinib]
Result: -0.2

Task: Queued: CCN1CCN(Cc2ccc(Nc3ncc(F)c(-c4cc(F)c5nc(C)n(C(C)C)c5c4)n3)nc2)CC1 [LY2835219]
Result: 2.2

Task: Ok, now CCS(=O)(=O)c1cccc(-c2cc(C(=O)NC3CCN(C)CC3)c(C)c3[nH]c4ncc(C)cc4c23)c1 [TAK-901]
Result: 1.5

Data provenance: paper PMC7619385
